Subject of test: CYP 2B6 (Homo sapiens)
Sequence (P20813 whole entry): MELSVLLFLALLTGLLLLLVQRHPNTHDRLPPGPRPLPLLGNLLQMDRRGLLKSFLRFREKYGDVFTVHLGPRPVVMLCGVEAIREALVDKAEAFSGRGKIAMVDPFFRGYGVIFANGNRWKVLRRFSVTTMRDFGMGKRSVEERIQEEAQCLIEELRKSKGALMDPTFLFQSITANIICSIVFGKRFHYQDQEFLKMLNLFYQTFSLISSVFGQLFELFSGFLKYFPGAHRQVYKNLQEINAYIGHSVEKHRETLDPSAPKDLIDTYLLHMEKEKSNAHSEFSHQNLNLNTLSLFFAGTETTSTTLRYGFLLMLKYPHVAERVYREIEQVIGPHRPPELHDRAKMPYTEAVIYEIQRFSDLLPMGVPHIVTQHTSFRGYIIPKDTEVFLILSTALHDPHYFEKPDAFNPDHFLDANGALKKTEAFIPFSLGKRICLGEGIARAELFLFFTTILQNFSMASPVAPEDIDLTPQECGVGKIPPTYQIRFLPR
pIC50: −log10 of the molar value.

- Compound: "COc1cc(C=CCOC2Cc3cc4ccc(=O)oc4cc3OC2(C)C)ccc1[N+](=O)[O-] (stereo not shown)"
  pIC50: "< 5.00"

----------
Subject of test: CYP 1A2 (Homo sapiens, UniProt P05177)
Sequence (P05177 1-516): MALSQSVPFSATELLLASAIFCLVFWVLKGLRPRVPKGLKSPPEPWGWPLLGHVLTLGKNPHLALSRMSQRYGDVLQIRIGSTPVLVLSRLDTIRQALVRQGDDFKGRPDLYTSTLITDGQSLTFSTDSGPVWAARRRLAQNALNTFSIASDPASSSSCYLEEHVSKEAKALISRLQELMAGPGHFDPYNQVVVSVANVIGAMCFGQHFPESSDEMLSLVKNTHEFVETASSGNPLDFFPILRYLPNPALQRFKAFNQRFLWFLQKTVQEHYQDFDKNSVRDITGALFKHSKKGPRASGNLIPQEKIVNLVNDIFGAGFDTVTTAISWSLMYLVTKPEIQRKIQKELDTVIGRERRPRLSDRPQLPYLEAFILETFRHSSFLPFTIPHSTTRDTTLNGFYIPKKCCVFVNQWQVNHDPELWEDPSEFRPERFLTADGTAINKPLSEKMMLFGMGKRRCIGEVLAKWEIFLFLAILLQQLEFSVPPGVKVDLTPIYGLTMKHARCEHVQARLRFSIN
Assay info: CYP inhibition (direct)
Assay type: in vitro ADME
Condition info: CYP 1A2, direct inhibition
Readout type: IC50

- Compound: "COc1cc(C=CCOC2Cc3cc4ccc(=O)oc4cc3OC2(C)C)ccc1[N+](=O)[O-] (stereo not shown) [PRG-A-04]"
  Readout type: "IC50"
  Endpoint result: "> 10 µM"

----------
Subject of test: CYP 2D6 (Homo sapiens)
Sequence (P10635 whole entry): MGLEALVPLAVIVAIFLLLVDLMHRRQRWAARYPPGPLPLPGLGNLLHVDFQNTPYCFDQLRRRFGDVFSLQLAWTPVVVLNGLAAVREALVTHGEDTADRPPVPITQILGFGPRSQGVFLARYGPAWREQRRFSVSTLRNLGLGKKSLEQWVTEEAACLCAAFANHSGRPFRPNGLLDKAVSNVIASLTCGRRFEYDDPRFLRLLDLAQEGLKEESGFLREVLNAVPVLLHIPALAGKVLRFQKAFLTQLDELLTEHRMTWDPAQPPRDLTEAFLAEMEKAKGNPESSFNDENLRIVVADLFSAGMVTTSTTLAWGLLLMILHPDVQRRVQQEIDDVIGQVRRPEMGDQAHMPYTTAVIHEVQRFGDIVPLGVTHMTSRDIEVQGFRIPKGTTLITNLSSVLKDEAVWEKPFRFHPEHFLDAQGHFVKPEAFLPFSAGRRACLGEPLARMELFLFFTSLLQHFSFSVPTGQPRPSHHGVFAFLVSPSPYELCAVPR
pIC50: −log10 of the molar value.

- Compound: "COc1cc(C=CCOC2Cc3cc4ccc(=O)oc4cc3OC2(C)C)ccc1[N+](=O)[O-] (stereo not shown)"
  pIC50: "< 5.00"

----------
Subject of test: UniProt P33261
Sequence (P33261 whole entry): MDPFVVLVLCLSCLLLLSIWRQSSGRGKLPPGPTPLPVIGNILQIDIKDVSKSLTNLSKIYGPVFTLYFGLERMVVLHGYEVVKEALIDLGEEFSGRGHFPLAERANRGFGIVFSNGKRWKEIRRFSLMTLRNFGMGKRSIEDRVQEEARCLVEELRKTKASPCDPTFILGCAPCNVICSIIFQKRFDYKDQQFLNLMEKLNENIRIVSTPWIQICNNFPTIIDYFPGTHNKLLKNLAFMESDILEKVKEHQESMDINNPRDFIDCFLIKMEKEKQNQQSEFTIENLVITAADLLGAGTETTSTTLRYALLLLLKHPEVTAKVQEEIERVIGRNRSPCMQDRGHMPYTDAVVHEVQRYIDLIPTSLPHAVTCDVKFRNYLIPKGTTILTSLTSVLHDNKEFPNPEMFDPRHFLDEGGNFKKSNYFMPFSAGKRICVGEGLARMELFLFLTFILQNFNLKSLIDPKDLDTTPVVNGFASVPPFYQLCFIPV
pIC50: −log10 of the molar value.
Readout type: pIC50

- Compound: "COc1cc(C=CCOC2Cc3cc4ccc(=O)oc4cc3OC2(C)C)ccc1[N+](=O)[O-] (stereo not shown)"
  Readout type: "pIC50"
  Endpoint result: 5.32

----------
Subject of test: CYP 2C8 (Homo sapiens, UniProt P10632)
Sequence (P10632 whole entry): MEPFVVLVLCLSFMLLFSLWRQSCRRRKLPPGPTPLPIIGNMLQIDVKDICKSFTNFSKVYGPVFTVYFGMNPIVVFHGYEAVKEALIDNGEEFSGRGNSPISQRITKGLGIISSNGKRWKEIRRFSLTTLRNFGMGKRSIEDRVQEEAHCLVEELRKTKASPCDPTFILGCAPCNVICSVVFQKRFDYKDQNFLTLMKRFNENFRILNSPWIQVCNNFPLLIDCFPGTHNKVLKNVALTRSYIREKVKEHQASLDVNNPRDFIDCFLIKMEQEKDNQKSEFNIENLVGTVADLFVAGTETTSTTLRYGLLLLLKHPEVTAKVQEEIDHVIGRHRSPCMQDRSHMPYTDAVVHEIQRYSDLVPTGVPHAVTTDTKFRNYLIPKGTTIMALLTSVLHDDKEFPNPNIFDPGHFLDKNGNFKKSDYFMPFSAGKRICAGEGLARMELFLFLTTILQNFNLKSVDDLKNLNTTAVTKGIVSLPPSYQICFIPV
pIC50: −log10 of the molar value.

- Compound: "COc1cc(C=CCOC2Cc3cc4ccc(=O)oc4cc3OC2(C)C)ccc1[N+](=O)[O-] (stereo not shown) [PRG-A-04]"
  Subject of test: "CYP 2C8 (Homo sapiens, UniProt P10632)"
  pIC50: "< 5.00"
